Where these numbers come from: patent US11155557B2

- STUDY_TARGET: isolated recombinant JAK2 kinase domain (Homo sapiens (Human))
- Sequence (O60674 849-1124): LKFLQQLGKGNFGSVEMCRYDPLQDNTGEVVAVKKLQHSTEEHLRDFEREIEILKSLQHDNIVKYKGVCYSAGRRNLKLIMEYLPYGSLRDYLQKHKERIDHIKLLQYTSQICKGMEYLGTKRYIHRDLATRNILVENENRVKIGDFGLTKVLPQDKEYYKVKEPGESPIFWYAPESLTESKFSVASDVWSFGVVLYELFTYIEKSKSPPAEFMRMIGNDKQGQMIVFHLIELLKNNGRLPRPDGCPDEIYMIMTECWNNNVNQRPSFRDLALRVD
- ASSAY_PROTOCOL: JAK2 enzyme assay (Caliper LabChip, Ki)
- MEASUREMENT_CONTEXT: read-out: JAK2 Ki
MEASURED_ENDPOINT: pKi
// pKi: -log10(molar conc.)

# pKi lookup, item CC(C)(C)OC(=O)N1CCN(C(=O)c2cc3cc(OC(F)F)c(-c4n[nH]cc4NC(=O)c4cnn5cccnc45)cc3s2)CC1
8.55

What value of measured pKi is listed for COc1cc2sccc2cc1-c1[nH]ncc1NC(=O)c1cnn2cccnc12 ?
9.72

Could you share which pKi value was measured for CC1CSc2cc(-c3nn(CC(=O)N4CCCCC4)cc3NC(=O)c3cnn4cccnc34)c(OC(F)F)cc2N1 (single isomer, unassigned) [Example 107] ?
9.64

// returns reported pKi for input CCN(C)C(=O)Cn1cc(NC(=O)c2cnn3cccnc23)c(-c2cc3c(cc2OC(F)F)NCCO3)n1
9.33

Fill in the blank: the reported pKi of CC(C)OC(=O)n1cc(NC(=O)c2cnn3cccnc23)c(-c2cc3c(cc2OC(F)F)NCCO3)n1 is ____.
9.42

Recorded pKi for CC1CNc2cc(OC(F)F)c(-c3nn(CC(=O)N(C)C)cc3NC(=O)c3cnn4cccnc34)cc2S1 (single isomer, unassigned) [Example 106] , please?
9.72

// returns reported pKi for input N#CCn1cc(NC(=O)c2cnn3cccnc23)c(-c2cc3c(cc2OC(F)F)NCCS3)n1
10.22

Record request: pKi value, item O=C(Nc1cn(CC2(O)CCOCC2)nc1-c1cc2c(cc1OC(F)F)NCCO2)c1cnn2cccnc12
9.33

What value of pKi has been recorded for this entry: CC1Sc2cc(-c3nn(C)cc3NC(=O)c3cnn4cccnc34)c(OC(F)F)cc2NC1=O (single isomer, unassigned) [Example 98]
10.15

So what does the record say about pKi for N#Cc1cc2cc(OC(F)F)c(-c3nn(CC(=O)N4CCC(N5CCOCC5)CC4)cc3NC(=O)c3cnn4cccnc34)cc2s1 ?
9.39

Requested field: pKi. Item: O=C(Nc1cn(CC(=O)N2CCC(CN3CCOCC3)CC2)nc1-c1cc2sccc2cc1OC(F)F)c1cnn2cccnc12
9.22

GET /values?readout=pKi&item= COc1cc2[nH]ncc2cc1-c1n[nH]cc1NC(=O)c1cnn2cccnc12
9.70

Field request: pKi | item: O=C(Nc1cn(CC(=O)N2CCC(N3CCOCC3)CC2)nc1-c1cc2sccc2cc1OC(F)F)c1cnn2cccnc12
9.31

Which pKi is reported for this compound? CC(C)(C)OC(=O)N1CCN(C(=O)Cn2cc(NC(=O)c3cnn4cccnc34)c(-c3cc4ccccc4cc3OC(F)F)n2)CC1
8.94

What does the record list as pKi for O=C(Nc1c[nH]nc1-c1cc2c(cc1OC(F)F)NCCS2)c1cnn2cccnc12 ?
10.22

Quick check: pKi of CNC(=O)Cn1cc(NC(=O)c2cnn3cccnc23)c(-c2cc3c(cc2OC(F)F)NCCO3)n1 ?
9.40

Look up pKi: O=C(Nc1c[nH]nc1-c1cc2c(cc1OC(F)F)CC(CO)O2)c1cnn2cccnc12 (racemic)
9.62

Entry O=C(Nc1cn(C2CCOC2=O)nc1-c1cc2c(cc1OC(F)F)NCCO2)c1cnn2cccnc12 (single isomer, unassigned) has what pKi?
9.38

Suppose we examine the compound O=C(Nc1c[nH]nc1-c1cc2sncc2cc1OC(F)F)c1cnn2cccnc12 ; what pKi value has been reported?
10.22

Consider the compound O=C(Nc1cn(CC(=O)N2CCC(N3CCOCC3)CC2)nc1-c1cc2c(cc1OC(F)F)NCCO2)c1cnn2cccnc12 and give its measured pKi.
9.35

Which value of pKi has been reported for O=C(Nc1cn(CC(=O)N2CCC(CN3CCOCC3)CC2)nc1-c1cc2c(cc1OC(F)F)NCCS2)c1cnn2cccnc12 in the records?
9.64

Need pKi of NC(=O)c1cc2cc(OC(F)F)c(-c3nn(CC(=O)N4CCC(=O)CC4)cc3NC(=O)c3cnn4cccnc34)cc2s1 , thanks.
9.62
